experiment: Solubility of the compound at pH 7.4 after 18 hrs by UV-spectroscopy; assay type: physicochemical; conditions: buffer

Molecule: O=C(Nc1cccc(C(F)(F)F)c1)N(Cc1ccccc1)C1CCN(CC2CCCCC2)CC1
solubility at 18 h: 1.2 µM
//
Molecule: O=C(Nc1cccc(C(F)(F)F)c1)NC1CCN(Cc2cccc(Cl)c2)CC1
solubility at 18 h: 0.7 µM
//
Molecule: O=C(Nc1cccc(-n2cccc2)c1)NC1CCN(Cc2ccccc2)CC1
solubility at 18 h: 1 µM
//
Molecule: Cc1ccc(NC(=O)NC2CCN(Cc3ccccc3)CC2)cc1Cl
solubility at 18 h: 2.4 µM
//
Molecule: O=C(Nc1cccc(C(F)(F)F)c1)N(Cc1ccccc1)C1CCN(Cc2ccc(F)cc2)CC1
solubility at 18 h: 0.9 µM
//
Molecule: CCCCS(=O)(=O)N1CCC(N(Cc2ccccc2)C(=O)Nc2cccc(C(F)(F)F)c2)CC1
solubility at 18 h: 1 µM
//
Molecule: O=C(Nc1cccc(C(F)(F)F)c1)N(Cc1ccccc1)C1CCN(Cc2cccnc2)CC1
solubility at 18 h: 30 µM
//
Molecule: CCCN1CCC(N(Cc2ccco2)C(=O)Nc2cccc(C(F)(F)F)c2)CC1
solubility at 18 h: 69 µM
//
Molecule: O=C(Nc1cccc(C(F)(F)F)c1)NC1CCN(Cc2cccc(F)c2)CC1
solubility at 18 h: 50 µM
//
Molecule: CCCC(C)N1CCC(N(Cc2ccccc2)C(=O)Nc2cccc(C(F)(F)F)c2)CC1 (stereo not given)
solubility at 18 h: 57 µM

====

assay: Permeability of the compound at 10 uM by PAMPA; type: ADME; conditions: PAMPA; read-out: permeability
Metric: Papp at 10 µM

Smiles text: CCCN1CCC(N(Cc2ccco2)C(=O)Nc2cccc(C(F)(F)F)c2)CC1
Result: > 2200 ×10⁻⁶ cm/s
//
Smiles text: O=C(Nc1cccc(C(F)(F)F)c1)N(Cc1ccccc1)C1CCN(CCC(F)(F)F)CC1
Result: 440 ×10⁻⁶ cm/s
//
Smiles text: Cc1ccc(NC(=O)NC2CCN(Cc3ccccc3)CC2)cc1Cl
Result: > 2200 ×10⁻⁶ cm/s
//
Smiles text: O=C(Nc1cccc(C(F)(F)F)c1)N(Cc1ccccc1)C1CCN(Cc2cccnc2)CC1
Result: > 2200 ×10⁻⁶ cm/s
//
Smiles text: O=C(Nc1cccc(C(F)(F)F)c1)N(Cc1ccccc1)C1CCN(Cc2ccc(F)cc2)CC1
Result: > 2200 ×10⁻⁶ cm/s
//
Smiles text: Cc1ccc(CN2CCC(NC(=O)Nc3cccc(C(F)(F)F)c3)CC2)cc1
Result: > 2200 ×10⁻⁶ cm/s
//
Smiles text: CCCCN1CCC(N(Cc2ccccc2)C(=O)Nc2cccc(C(F)(F)F)c2)CC1
Result: > 2200 ×10⁻⁶ cm/s
//
Smiles text: O=C(Nc1cccc(C(F)(F)F)c1)NC1CCN(C(=O)c2ccccc2)CC1
Result: 910 ×10⁻⁶ cm/s
//
Smiles text: O=C(Nc1cccc(C(F)(F)F)c1)NC1CCN(Cc2ccccc2Cl)CC1
Result: 830 ×10⁻⁶ cm/s
//
Smiles text: CCCCN1CCC(N(Cc2ccc3c(c2)OCO3)C(=O)Nc2cccc(C(F)(F)F)c2)CC1
Result: > 2200 ×10⁻⁶ cm/s

====

experiment: Solubility of the compound at pH 7.4 after 18 hrs by UV-spectroscopy; type: physicochemical; conditions: buffer

Smiles text: O=C(Nc1cccc(CN2CCOCC2)c1)NC1CCN(Cc2ccccc2)CC1
Unit abbreviation: µM
Operator symbol: =
solubility at 18 h: 75
//
Smiles text: O=C(Nc1cccc(C(F)(F)F)c1)N(Cc1ccccc1)C1CCN(Cc2ccccc2)CC1
Unit abbreviation: µM
Operator symbol: =
solubility at 18 h: 11
//
Smiles text: CCCC(=O)N1CCC(N(Cc2ccccc2)C(=O)Nc2cccc(C(F)(F)F)c2)CC1
Unit abbreviation: µM
Operator symbol: <
solubility at 18 h: 0.1
//
Smiles text: O=C(Nc1cccc(C(F)(F)F)c1)N(Cc1ccccc1)C1CCN(Cc2ccc3c(c2)OCCO3)CC1
Unit abbreviation: µM
Operator symbol: =
solubility at 18 h: 1
//
Smiles text: CC(C)(C)CCN1CCC(N(Cc2ccccc2)C(=O)Nc2cccc(C(F)(F)F)c2)CC1
Unit abbreviation: µM
Operator symbol: =
solubility at 18 h: 5.8
//
Smiles text: O=C(Nc1ccccc1)NC1CCN(Cc2ccccc2)CC1
Unit abbreviation: µM
Operator symbol: =
solubility at 18 h: 68
//
Smiles text: Cc1ccc(CN2CCC(NC(=O)Nc3cccc(C(F)(F)F)c3)CC2)cc1
Unit abbreviation: µM
Operator symbol: =
solubility at 18 h: 14
//
Smiles text: O=C(Nc1cccc(C(F)(F)F)c1)N(Cc1ccccc1)C1CCN(CC2CC2)CC1
Unit abbreviation: µM
Operator symbol: =
solubility at 18 h: 75
//
Smiles text: CCCN1CCC(N(Cc2cc(F)cc(C(F)(F)F)c2)C(=O)Nc2cccc(C(F)(F)F)c2)CC1
Unit abbreviation: µM
Operator symbol: =
solubility at 18 h: 37
//
Smiles text: CCCN1CCC(N(CCOC)C(=O)Nc2cccc(C(F)(F)F)c2)CC1
Unit abbreviation: µM
Operator symbol: =
solubility at 18 h: 64

====

The entries below come with measured permeability values attached.
experiment: Permeability of the compound at 10 uM by PAMPA; assay type: ADME; conditions: pampa, 10 µM

Compound: O=C(Nc1cccc(C(F)(F)F)c1)NC1CCN(Cc2cccc(Cl)c2)CC1
permeability (×10⁻⁶ cm/s): 1700
//
Compound: CCCN1CCC(N(CC(C)C)C(=O)Nc2cccc(C(F)(F)F)c2)CC1
permeability (×10⁻⁶ cm/s): 1900
//
Compound: Cc1ccccc1CN1CCC(NC(=O)Nc2cccc(C(F)(F)F)c2)CC1
permeability (×10⁻⁶ cm/s): 1200
//
Compound: CCCC(C)N1CCC(N(Cc2ccccc2)C(=O)Nc2cccc(C(F)(F)F)c2)CC1 (stereo not drawn)
permeability (×10⁻⁶ cm/s): 1400
//
Compound: CCCN1CCC(N(CCOC)C(=O)Nc2cccc(C(F)(F)F)c2)CC1
permeability (×10⁻⁶ cm/s): 1600
//
Compound: O=C(Nc1ccccc1)NC1CCN(Cc2ccccc2)CC1
permeability (×10⁻⁶ cm/s): 1400
//
Compound: CCCN1CCC(N(Cc2cccnc2)C(=O)Nc2cccc(C(F)(F)F)c2)CC1
permeability (×10⁻⁶ cm/s): 1300
//
Compound: CCCN1CCC(N(CCC)C(=O)Nc2cccc(C(F)(F)F)c2)CC1
permeability (×10⁻⁶ cm/s): 1600

====

The entries below come with measured IC50 values attached.
molecular target: DCN1-like protein 1 (Homo sapiens, UniProt Q96GG9)
Sequence (Q96GG9 whole entry): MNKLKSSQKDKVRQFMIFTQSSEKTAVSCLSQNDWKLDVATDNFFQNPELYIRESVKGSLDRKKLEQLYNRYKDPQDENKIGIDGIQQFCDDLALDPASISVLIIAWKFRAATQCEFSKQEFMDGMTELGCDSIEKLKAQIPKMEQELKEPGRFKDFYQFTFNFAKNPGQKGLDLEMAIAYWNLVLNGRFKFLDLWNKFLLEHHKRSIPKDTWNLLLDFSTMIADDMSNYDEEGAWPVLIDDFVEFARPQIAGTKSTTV
Metric: IC50 (nM)

Molecule: CCCN1CCC(N(CC2CCCCC2)C(=O)Nc2cccc(C(F)(F)F)c2)CC1
Assay target: DCN1-like protein 1 (Homo sapiens, UniProt Q96GG9)
Metric: IC50
Unit abbreviation: nM
Operator symbol: =
Result number: 2400
//
Molecule: O=C(Nc1cccc(C(F)(F)F)c1)NC1CCN(C(=O)c2ccccc2)CC1
Assay target: DCN1-like protein 1 (Homo sapiens, UniProt Q96GG9)
Metric: IC50
Unit abbreviation: nM
Operator symbol: >
Result number: 67000
//
Molecule: Cc1ccc(NC(=O)NC2CCN(Cc3ccccc3)CC2)cc1Cl
Assay target: DCN1-like protein 1 (Homo sapiens, UniProt Q96GG9)
Metric: IC50
Unit abbreviation: nM
Operator symbol: >
Result number: 67000
//
Molecule: O=C(Nc1cccc(C(F)(F)F)c1)N(Cc1ccccc1)C1CCN(CC2CCCCC2)CC1
Assay target: DCN1-like protein 1 (Homo sapiens, UniProt Q96GG9)
Metric: IC50
Unit abbreviation: nM
Operator symbol: =
Result number: 620
//
Molecule: O=C(Nc1cccc(C(F)(F)F)c1)N(Cc1ccccc1)C1CCN(Cc2ccc3c(c2)OCCO3)CC1
Assay target: DCN1-like protein 1 (Homo sapiens, UniProt Q96GG9)
Metric: IC50
Unit abbreviation: nM
Operator symbol: =
Result number: 360
//
Molecule: CCCC(C)N1CCC(N(Cc2ccccc2)C(=O)Nc2cccc(C(F)(F)F)c2)CC1 (configuration not stated)
Assay target: DCN1-like protein 1 (Homo sapiens, UniProt Q96GG9)
Metric: IC50
Unit abbreviation: nM
Operator symbol: =
Result number: 62
//
Molecule: CCCCCN1CCC(N(Cc2ccccc2)C(=O)Nc2cccc(C(F)(F)F)c2)CC1
Assay target: DCN1-like protein 1 (Homo sapiens, UniProt Q96GG9)
Metric: IC50
Unit abbreviation: nM
Operator symbol: =
Result number: 660
//
Molecule: O=C(Nc1cccc(C(F)(F)F)c1)N(Cc1ccccc1)C1CCN(Cc2cc[nH]n2)CC1
Assay target: DCN1-like protein 1 (Homo sapiens, UniProt Q96GG9)
Metric: IC50
Unit abbreviation: nM
Operator symbol: =
Result number: 2400
//
Molecule: CCCN1CCC(N(Cc2cc(F)cc(C(F)(F)F)c2)C(=O)Nc2cccc(C(F)(F)F)c2)CC1
Assay target: DCN1-like protein 1 (Homo sapiens, UniProt Q96GG9)
Metric: IC50
Unit abbreviation: nM
Operator symbol: =
Result number: 1000
//
Molecule: Cc1cccc(CN2CCC(NC(=O)Nc3cccc(C(F)(F)F)c3)CC2)c1
Assay target: DCN1-like protein 1 (Homo sapiens, UniProt Q96GG9)
Metric: IC50
Unit abbreviation: nM
Operator symbol: =
Result number: 6600
//
Molecule: O=C(Nc1cccc(-n2cccc2)c1)NC1CCN(Cc2ccccc2)CC1
Assay target: DCN1-like protein 1 (Homo sapiens, UniProt Q96GG9)
Metric: IC50
Unit abbreviation: nM
Operator symbol: >
Result number: 67000
//
Molecule: CCCCN1CCC(N(Cc2ccccc2)C(=O)Nc2cccc(C(F)(F)F)c2)CC1
Assay target: DCN1-like protein 1 (Homo sapiens, UniProt Q96GG9)
Metric: IC50
Unit abbreviation: nM
Operator symbol: =
Result number: 260
